system.tested: T1, IL-18 receptor (IL-18Rα and IL-18Rβ) (UniProt Q13478 19-541; O95256 20-599, limits assumed)
T1 sequence (looked up) 1: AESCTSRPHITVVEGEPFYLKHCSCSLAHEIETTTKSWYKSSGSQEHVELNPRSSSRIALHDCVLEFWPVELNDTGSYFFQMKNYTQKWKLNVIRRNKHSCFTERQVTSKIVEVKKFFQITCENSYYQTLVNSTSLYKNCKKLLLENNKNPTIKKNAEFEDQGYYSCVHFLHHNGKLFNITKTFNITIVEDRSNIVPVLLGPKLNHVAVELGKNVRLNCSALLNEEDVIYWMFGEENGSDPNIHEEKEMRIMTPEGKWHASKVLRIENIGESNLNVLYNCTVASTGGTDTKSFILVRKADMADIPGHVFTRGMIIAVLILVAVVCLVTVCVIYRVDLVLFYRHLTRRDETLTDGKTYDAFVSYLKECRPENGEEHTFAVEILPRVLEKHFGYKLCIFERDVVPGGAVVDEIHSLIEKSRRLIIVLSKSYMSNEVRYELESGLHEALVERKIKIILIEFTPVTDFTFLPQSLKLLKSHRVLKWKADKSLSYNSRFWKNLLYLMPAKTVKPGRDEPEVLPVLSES
T1 sequence (looked up) 2: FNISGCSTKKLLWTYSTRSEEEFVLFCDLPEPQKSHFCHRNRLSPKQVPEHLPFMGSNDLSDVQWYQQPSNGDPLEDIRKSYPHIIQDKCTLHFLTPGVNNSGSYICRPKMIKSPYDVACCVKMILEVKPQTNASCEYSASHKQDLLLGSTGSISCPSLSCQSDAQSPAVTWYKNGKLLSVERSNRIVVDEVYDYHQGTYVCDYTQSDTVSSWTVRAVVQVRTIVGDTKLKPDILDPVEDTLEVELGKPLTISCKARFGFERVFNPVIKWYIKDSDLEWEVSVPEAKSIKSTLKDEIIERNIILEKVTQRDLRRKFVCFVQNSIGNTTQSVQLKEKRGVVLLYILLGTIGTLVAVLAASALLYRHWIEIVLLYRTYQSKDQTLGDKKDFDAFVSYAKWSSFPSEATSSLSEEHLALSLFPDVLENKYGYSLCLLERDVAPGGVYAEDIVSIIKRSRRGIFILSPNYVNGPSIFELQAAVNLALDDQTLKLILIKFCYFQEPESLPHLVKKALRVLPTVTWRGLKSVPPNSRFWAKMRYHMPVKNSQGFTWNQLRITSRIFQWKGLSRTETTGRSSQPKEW
experimental.details: cell-based or functional assay
measure.name: EC50 (pM), PBMC IFN gamma assay, run 2

binder="hIL18 (G3V, E6K, K53A, M60K)- KiH (Fc fusion) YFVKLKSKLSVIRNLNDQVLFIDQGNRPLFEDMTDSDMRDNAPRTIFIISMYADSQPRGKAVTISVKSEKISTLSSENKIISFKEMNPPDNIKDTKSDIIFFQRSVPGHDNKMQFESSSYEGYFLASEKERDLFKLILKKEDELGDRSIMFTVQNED" number=3.21
binder="hIL18 (G3T, K53S, M60K) - KiH (Fc fusion) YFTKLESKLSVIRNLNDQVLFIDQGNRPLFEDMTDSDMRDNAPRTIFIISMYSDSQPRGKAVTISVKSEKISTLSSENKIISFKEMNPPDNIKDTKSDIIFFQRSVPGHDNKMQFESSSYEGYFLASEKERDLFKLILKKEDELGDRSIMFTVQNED" number=1120
binder="hIL18 (G3T, E6K, K53S, M60K) - KiH (Fc fusion) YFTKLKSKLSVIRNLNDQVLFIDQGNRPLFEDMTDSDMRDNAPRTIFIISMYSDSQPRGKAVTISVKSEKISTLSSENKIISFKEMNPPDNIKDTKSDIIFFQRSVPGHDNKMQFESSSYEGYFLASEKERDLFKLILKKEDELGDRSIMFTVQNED" number=121
binder="hIL18 (G3V, K53A, M60K) - KiH (Fc fusion) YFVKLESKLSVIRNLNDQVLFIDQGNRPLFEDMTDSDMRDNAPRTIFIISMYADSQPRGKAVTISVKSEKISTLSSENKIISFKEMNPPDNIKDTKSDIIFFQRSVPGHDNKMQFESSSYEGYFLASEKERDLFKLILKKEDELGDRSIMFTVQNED" number=75
binder="hIL18 (G3T, E6K, K53A, M60K) - KiH (Fc fusion) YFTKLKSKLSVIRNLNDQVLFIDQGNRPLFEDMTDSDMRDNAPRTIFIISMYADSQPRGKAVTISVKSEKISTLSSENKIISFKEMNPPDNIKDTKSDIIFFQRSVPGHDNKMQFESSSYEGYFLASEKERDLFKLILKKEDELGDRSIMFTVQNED" number=14
